Collected set of IC50 measured with Platelet-derived growth factor receptor beta (Homo sapiens) across studies.
Express your answer in nM, writing the number without its unit.

Consider the reported IC50 for these compounds:
CC(C)c1[nH]c(/C=C2\C(=O)Nc3ccc(Br)cc32)c(-c2ccccc2)c1C(=O)NCCCN1CCN(C)CC1: 7900
CCCn1cc(-c2cc(Oc3ccc4nc(N[C@@H]5CCCC[C@H]5O)sc4c3)ccn2)cn1: 1500

Could you now consider this next compound?
Value wanted: IC50 (Platelet-derived growth factor receptor beta (Homo sapiens)) of entry Cc1ccc(C(=O)N[C@H]2CCCC[C@@H]2O)cc1NCc1ccc(NC(=O)N(C)C2CC2)nc1
170

---

Collected set of pIC50 measured with Platelet-derived growth factor receptor beta (Homo sapiens, UniProt P09619) across studies.
pIC50: −log10 of the molar value.

CNC(=O)c1cc(Oc2ccc(N(C)C(=O)Nc3cc(OCCOC)cc(C(F)(F)F)c3)cc2)ccn1: ≥ 5.00
COC(=O)c1ccc2c(c1)NC(=O)/C2=C(\Nc1ccc2c(c1)CCN2C(=O)CN1CCN(C)CC1)c1ccccc1: 8.12
O=C(CCCCC(=O)NCc1cc(Oc2ccc(NC(=O)Nc3ccc(Cl)c(C(F)(F)F)c3)cc2)ccn1)NO: 6.00 to 7.00

Quick one: pIC50 of CCn1cc2ncc(N[C@@H](C)c3cc(NC(=O)Cc4cc(CN5CCCC5)c(C)cn4)ccc3C)nc2n1 ?
≤ 6.00

---

Collected set of pIC50 measured with Platelet-derived growth factor receptor beta (Homo sapiens, UniProt P09619) across studies.
Quick note: pIC50 values are minus log10 of concentrations in mol/L.

Consider the reported pIC50 for these molecules:
CCOC(=O)CN1CCN(CCCNC(=O)c2cc3nccc(Oc4ccc(NC(=O)Nc5cc(C)ccc5F)cc4)c3s2)CC1: 7.89
Cc1ccc(C(=O)N[C@H]2CCCC[C@@H]2O)cc1NC(=O)c1cncc(OCC2CC2)c1: 7.19
O=C(Nc1cccc(C#Cc2ccc3nccn3n2)c1)c1cc2ccccc2o1: 5.57
Cc1ccc(C(=O)N[C@H]2CCCC[C@@H]2O)cc1NCc1cncc(-c2cc(F)cc(F)c2)c1: 7.49
Cc1cc(-c2cc(O)ccc2Cl)cc2nnc(Nc3ccc(S(=O)(=O)CCCN4CCCC4)cc3)nc12: 8.54

Quick one: pIC50 of O=C(Nc1ccc(Oc2ncnc3[nH]ncc23)cc1)Nc1ccc(Cl)c(C(F)(F)F)c1 ?
6.39

Now consider Cc1ccoc1C(=O)Nc1cccc(Oc2ccnc3cc(C(=O)OCCCO)sc23)c1 .
6.84

---

Collected set of pIC50 measured with Platelet-derived growth factor receptor beta (Homo sapiens, UniProt P09619) across studies.
pIC50: −log10 of the molar value.

Cc1cc(C(=O)Nc2cccc([C@H](C)Nc3cnc4[nH]cc(C)c4n3)c2)cnc1C(F)(F)F: > 6.52
CCn1cc2ncc(N[C@@H](C)c3cccc(NC(=O)c4cnc(C5OCCO5)s4)c3)nc2n1: ≤ 6.00
Cc1cc(C(=O)Nc2cccc([C@H](C)Nc3cnc4cnn(C)c4n3)c2)cnc1Cl: > 6.52
Cn1cc(-c2cc(Oc3cccc(NC(=O)Nc4ccc(C(F)(F)F)cc4Cl)c3)ncn2)cn1: ≥ 5.00
CCn1cc2ncc(N[C@@H](C)c3cccc(NC(=O)c4ccc(CN5CC[C@H](O)C5)c(C)c4)c3)nc2n1: ≤ 6.00
Cc1ccc(NC(=O)c2ccc(C(=O)NO)cc2)cc1Nc1nc(-c2cccnc2)cs1: 4.15 to 5.68

Quick one: pIC50 of Cc1cncc(C(=O)Nc2cccc([C@H](C)Nc3cnc4cc(C)sc4n3)c2)c1 ?
> 6.52

Now consider Cc1nn(C)c(C)c1-c1cc(Oc2ccc(NC(=O)Nc3ccc(Cl)c(C(F)(F)F)c3)cc2)ncn1 .
≥ 5.00

Now consider Cc1ncc(C(=O)N[C@H]2CCCC[C@@H]2O)cc1NCc1cnn2ccccc12 .
6.68

Now consider Cn1cc(-c2nccc(Oc3cccc(NC(=O)Nc4ccc(Cl)c(C(F)(F)F)c4)c3)n2)cn1 .
≥ 5.00

Now consider Cc1cncc(C(=O)Nc2cccc([C@H](C)Nc3cnc4ccoc4n3)c2)c1 .
> 6.52

Now consider Cn1nccc1-c1cc(Oc2cccc(NC(=O)Nc3ccc(Cl)c(C(F)(F)F)c3)c2)ncn1 .
≥ 5.00

Now consider Cn1cc(-c2cc(Oc3ccc(NC(=O)c4ccc(Cl)c(C(F)(F)F)c4)cc3)ccn2)cn1 .
≥ 5.00

---

Collected set of pIC50 measured with Platelet-derived growth factor receptor beta (Homo sapiens) across studies.
pIC50: −log10 of the molar value.

Consider the reported pIC50 for these compounds:
CCn1cc2ncc(N[C@@H](C)c3cccc(NC(=O)Cc4ccccn4)c3)nc2n1: ≤ 6.00
CCn1cc2ncc(N[C@@H](C)c3cccc(NC(=O)c4cnc(OCC5CC5)c(C)c4)c3)nc2n1: > 6.52
Cc1ccc(C(=O)N[C@H]2CCCC[C@@H]2O)cc1NCc1cnc(-c2ccccc2)nc1: 6.80

Quick one: pIC50 of CCn1cc2ncc(N[C@@H](C)c3cccc(NC(=O)c4ccc(CN5CC6CC6C5)c(C)c4)c3)nc2n1 (stereo partly shown) ?
> 6.52

Now consider CCN(CC)CCNC(=O)c1c(C)[nH]c(/C=C2\C(=O)Nc3cc(-c4ccccc4)ccc32)c1C .
> 6.11

Now consider Cn1cc(-c2cc(Oc3cccc(NC(=O)c4cccc(-n5cnnc5)c4)c3)ccn2)cn1 .
< 5.00

Now consider CCn1cc2ncc(N[C@@H](C)c3cccc(NC(=O)c4cnc(N5CCCC5)s4)c3)nc2n1 .
> 6.52

---

Collected set of IC50 measured with Platelet-derived growth factor receptor beta (Homo sapiens) across studies.

CCOc1cccc(C(=O)Nc2cccc(Oc3ccnc(-c4cnn(C)c4)c3)c2)c1: ≤ 10 µM
CCn1cc2ncc(N[C@@H](C)c3cc(NC(=O)Cc4cccc(C(F)(F)F)c4)ccc3F)nc2n1: < 0.3 µM
Cc1cc(C(=O)Nc2cccc([C@H](C)Nc3cnc4cnn(C)c4n3)c2)cnc1NC(C)C: < 0.3 µM
CCn1cc2ncc(N[C@@H](C)c3cc(NC(=O)Cc4cncc(C)c4)ccc3F)nc2n1: 0.3 to 1 µM

Could you now consider this next compound?
Quick one: IC50 of Cn1cc(-c2cc(Oc3ccc(NC(=O)C4(C(=O)Nc5ccc(F)cc5)CC4)c(F)c3F)ccn2)cn1 ?
< 2 µM

---

Collected set of IC50 measured with Platelet-derived growth factor receptor beta (Homo sapiens) across studies.

Consider the reported IC50 for these compounds:
Cc1cc(C(=O)Nc2cccc([C@H](C)Nc3cnc4cnn(C)c4n3)c2)cnc1CN1CCN(C)CC1: < 0.3 µM
Cc1nc(N)ncc1/C(F)=C/c1cc(C(=O)N[C@H]2CCCC[C@@H]2O)ccc1F: 0.021 µM
CCn1cc2ncc(N[C@@H](C)c3cccc(NC(=O)Cc4ccc(C5CC5)cn4)c3)nc2n1: ≥ 1 µM

Quick one: IC50 of COC(=O)c1ccc(C(=O)Nc2cccc([C@H](C)Nc3cnc4cnn(C)c4n3)c2)cc1C ?
< 0.3 µM

Now consider CCn1cc2ncc(N[C@@H](C)c3cccc(NC(=O)c4ccc5c(c4)OC(F)(F)O5)c3)nc2n1 .
< 0.3 µM

Now consider C[C@H](Nc1cnc2cnn(C)c2n1)c1cccc(NC(=O)c2ccc3c(c2)SCCN3)c1 .
< 0.3 µM

Now consider Cc1cc2ncc(N[C@@H](C)c3cccc(NC(=O)c4ccc(C5CC5)nc4)c3)nc2s1 .
< 0.3 µM

Now consider COCCOC(=O)c1cc2nccc(Oc3cccc(NC(=O)c4occc4C)c3)c2s1 .
0.273 µM

Now consider CCn1cc2ncc(N[C@@H](C)c3cc(NC(=O)c4ccc(OC5CCN(C)CC5)c(C)c4)ccc3F)nc2n1 .
< 0.3 µM

Now consider Cn1cc(-c2cc(Oc3cccc(NC(=O)c4ccc5c(c4)CCO5)c3)ccn2)cn1 .
> 10 µM

Now consider O=C(Nc1cccc(Oc2ccnc(-c3nnco3)c2)c1)Nc1cc(C(F)(F)F)c(Cl)cc1OCCN1CCCC1 .
≤ 10 µM

Now consider Cc1ccc(C(=O)N[C@H]2CCCC[C@@H]2O)cc1/C=C(\F)c1cncc(CN2CCN(C)CC2)c1 .
0.1 µM

---

Collected set of IC50 measured with Platelet-derived growth factor receptor beta (Homo sapiens) across studies.

Consider the reported IC50 for these compounds:
Cc1cc2ncc(N[C@@H](C)c3cc(NC(=O)c4ccc(OC(F)F)nc4)ccc3F)nc2s1: < 300 nM
Cn1cc(-c2cc(Oc3ccc(NC(=O)C4(C(=O)Nc5ccc(F)cc5)CC4)nc3)ccn2)cn1: < 10000 nM
CCn1cc2ncc(N[C@@H](C)c3cc(NC(=O)c4cc(C)c(CN5CC[C@@H](O)C5)c(F)c4)ccc3C)nc2n1: < 300 nM
Cc1cncc(C(=O)Nc2cccc([C@H](C)Nc3cnc4ccc(-c5cnn(C)c5)cc4n3)c2)c1: < 300 nM
CC(=O)Nc1cc(-c2c(C)cccc2C)cc2nnc(Nc3ccc(S(=O)(=O)NCCN4CCCC4)cc3)nc12: 1850 nM
CNC(=O)c1cc(Oc2ccc(N(C)C(=O)Nc3ccc(Cl)c(C(F)(F)F)c3)cc2)ccn1: ≤ 10000 nM
CCn1cc2ncc(N[C@@H](C)c3cc(NC(=O)c4cnc5ccccc5c4)ccc3F)nc2n1: < 300 nM

Could you now consider this next compound?
Quick one: IC50 of Cn1cc(-c2cc(Oc3cccc(NC(=O)c4ccccc4Oc4ccccc4)c3)ccn2)cn1 ?
≤ 10000 nM
